Target: T1, EsCas13d, nuclease-dead (Eubacterium siraeum, UniProt B0MS50, R295A;H300A;R849A;H854A)
T1 sequence: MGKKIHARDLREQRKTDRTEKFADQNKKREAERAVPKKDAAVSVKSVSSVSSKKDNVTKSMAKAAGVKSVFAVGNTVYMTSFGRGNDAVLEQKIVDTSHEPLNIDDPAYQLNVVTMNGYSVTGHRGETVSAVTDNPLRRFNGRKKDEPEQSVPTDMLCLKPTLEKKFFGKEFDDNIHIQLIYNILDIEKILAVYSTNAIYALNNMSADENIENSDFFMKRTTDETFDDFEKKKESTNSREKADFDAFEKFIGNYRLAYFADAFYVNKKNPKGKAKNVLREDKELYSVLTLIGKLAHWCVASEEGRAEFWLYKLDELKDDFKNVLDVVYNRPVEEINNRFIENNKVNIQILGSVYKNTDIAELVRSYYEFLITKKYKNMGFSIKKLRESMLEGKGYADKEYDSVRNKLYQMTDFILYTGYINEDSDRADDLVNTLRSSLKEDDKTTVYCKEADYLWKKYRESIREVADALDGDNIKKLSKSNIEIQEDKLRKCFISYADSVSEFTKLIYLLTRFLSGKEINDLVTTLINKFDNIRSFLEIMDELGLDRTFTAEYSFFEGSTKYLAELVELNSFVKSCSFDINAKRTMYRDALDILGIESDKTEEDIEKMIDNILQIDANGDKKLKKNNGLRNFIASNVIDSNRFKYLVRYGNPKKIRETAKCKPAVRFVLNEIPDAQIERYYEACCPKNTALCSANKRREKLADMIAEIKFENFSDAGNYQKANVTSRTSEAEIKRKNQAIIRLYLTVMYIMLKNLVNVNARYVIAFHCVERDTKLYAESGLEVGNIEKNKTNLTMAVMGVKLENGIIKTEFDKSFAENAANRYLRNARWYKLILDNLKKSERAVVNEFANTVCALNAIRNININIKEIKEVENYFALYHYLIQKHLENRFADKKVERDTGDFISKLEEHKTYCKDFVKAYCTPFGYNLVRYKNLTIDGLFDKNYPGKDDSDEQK
Test: crRNA (strand 1, pre-loaded); Mg2+; 40 mM Tris-HCl pH 7.5, 150 mM NaCl, 6 mM MgCl2, 1 mM DTT, 0.1% Tween-20, 0.2 mg/ml BSA; 25 C; 10 min per concentration, then washed
Conditions: tags: His6-TwinStrep-SUMO cleaved; N-terminal SNAP kept (SNAP-Surface 488); label: 3' end held by stalled T7 RNA polymerase

[
  {
    "BINDER": "target 1 MT 5'PFS CCU 3'PFS CUU (mixed) RNA 1: CACCCGUGCAAAAAUGCAGGGGUCUAAAACUGAGCGGAUAACCUCUCUAUGG RNA 2: GGGAAUGGAUCCACAUCUACGAAUUCCCUCCAUAGAGAGGUUAUCCGCUCACUUAGAUCGGAAGAGCACACGU",
    "Kd": "6.65 nM"
  },
  {
    "BINDER": "target 1 insG 3' of 16,insU 3' of 1 (mixed) RNA 1: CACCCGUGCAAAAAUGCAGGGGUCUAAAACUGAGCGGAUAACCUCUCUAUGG RNA 2: GGGAAUGGAUCCACAUCUACGAAUUCGUACCAUAGAGGAGGUUAUCCGCUCAUCCGAGAUCGGAAGAGCACACGU",
    "Kd": "16 nM"
  },
  {
    "BINDER": "target 1 insU 3' of 13,insU 3' of 2 (mixed) RNA 1: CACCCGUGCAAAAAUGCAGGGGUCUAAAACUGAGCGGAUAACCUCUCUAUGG RNA 2: GGGAAUGGAUCCACAUCUACGAAUUCGUACCAUAGAGAGUGUUAUCCGCUCUACCGAGAUCGGAAGAGCACACGU",
    "Kd": "16.6 nM"
  }
]
